Attribution: ChEMBL document CHEMBL5500352

Task for the reader: assign each of the following compounds its reported IC50.
Experiment: Cytotoxicity against human HPNE cells
Type: toxicity, cell-based
Please format your answer as a value with the unit trailing.

>>> value_observed("O=C(CCCNC1=CC(=O)c2cc3ccccc3cc2C1=O)Nc1ccc(N(C(=O)CCl)C(C(=O)NCCc2ccccc2)c2cccs2)cc1 (centres undefined)")
"7.46 µM"

Give me IC50 for each of these compounds, listed below.
1. O=C(CCCCCNC1=CC(=O)c2ccccc2C1=O)Nc1ccc(N(C(=O)CCl)C(C(=O)NCCc2ccccc2)c2cccs2)cc1 (centres undefined)
2. COc1ccc2c(c1)C(=O)C=C(NCCOCCC(=O)Nc1ccc(N(C(=O)CCl)C(C(=O)NCCc3ccccc3)c3cccs3)cc1)C2=O (centres undefined)

A.
1: 9.55 µM; 2: 3.09 µM

Q. Query IC50 for COc1ccc(N(C(=O)CCl)C(C(=O)NCCc2ccccc2)c2cccs2)cc1Cl (centres undefined)
A. 0.75 µM

###

Tested on: HT-1080
Test: Cytotoxicity against human HT-1080 cells incubated for 48 hrs by CCK-8 assay
Assay type: functional, cell-based
Details: HT-1080, 48 h
The threshold is 2000 nM. Values of IC50 beneath it are tagged 1; values meeting or exceeding it are tagged 0.

# example entries with known answers
>>> cat("COc1cccc2c1C(=O)C=C(NCCOCCC(=O)Nc1ccc(N(C(=O)CCl)C(C(=O)NCCc3ccccc3)c3cccs3)cc1)C2=O (centres undefined)")
0
>>> cat("O=C(CCNC1=CC(=O)c2ccccc2C1=O)Nc1ccc(N(C(=O)CCl)C(C(=O)NCCc2ccccc2)c2cccs2)cc1 (centres undefined)")
0
>>> cat("COc1ccc2c(c1)C(=O)C=C(NCCCC(=O)Nc1ccc(N(C(=O)CCl)C(C(=O)NCCc3ccccc3)c3cccs3)cc1)C2=O (centres undefined)")
0
>>> cat("O=C(CCNC1=CC(=O)c2cc3ccccc3cc2C1=O)Nc1ccc(N(C(=O)CCl)C(C(=O)NCCc2ccccc2)c2cccs2)cc1 (centres undefined)")
0
>>> cat("O=C(CCCCNC1=CC(=O)c2ccccc2C1=O)Nc1ccc(N(C(=O)CCl)C(C(=O)NCCc2ccccc2)c2cccs2)cc1 (centres undefined)")
1

Q. Please indicate whether the reported IC50 of O=C(Cn1cc(COCc2ccc(N(C(=O)CCl)C(C(=O)NCCc3ccccc3)c3cccs3)cc2Cl)nn1)NCCCNC1=C(Cl)C(=O)c2ccccc2C1=O (centres undefined) is strictly below 2000 nM.
A. 0

Q. Please indicate whether the reported IC50 of COc1ccc2c(c1)C(=O)C=C(N1CCC(C(=O)Nc3ccc(N(C(=O)CCl)C(C(=O)NCCc4ccccc4)c4cccs4)cc3)CC1)C2=O (centres undefined) is strictly below 2000 nM.
A. 0

Q. Please indicate whether the reported IC50 of O=C(CCOCCNC1=CC(=O)c2ccccc2C1=O)Nc1ccc(N(C(=O)CCl)C(C(=O)NCCc2ccccc2)c2cccs2)cc1 (centres undefined) is strictly below 2000 nM.
A. 0

Q. Please indicate whether the reported IC50 of O=C1C(Cl)=C(N2CCC(C(=O)Nc3ccc(N(C(=O)CCl)C(C(=O)NCCc4ccccc4)c4cccs4)cc3)CC2)C(=O)c2ccccc21 (centres undefined) is strictly below 2000 nM.
A. 0

Q. Please indicate whether the reported IC50 of O=C1C(Cl)=C(NC2CN(C(=O)Cn3cc(COCc4ccc(N(C(=O)CCl)C(C(=O)NCCc5ccccc5)c5cccs5)cc4Cl)nn3)C2)C(=O)c2ccccc21 (centres undefined) is strictly below 2000 nM.
A. 0
